# condition_parameters: in methanol, 318.15 K
measured_metric: solubility (mole fraction)
Number, no unit, nothing else.

In: So what's the measured solubility (mole fraction) for this one? CC(C)(C)c1cc(CCC(=O)OCC(COC(=O)CCc2cc(C(C)(C)C)c(O)c(C(C)(C)C)c2)(COC(=O)CCc2cc(C(C)(C)C)c(O)c(C(C)(C)C)c2)COC(=O)CCc2cc(C(C)(C)C)c(O)c(C(C)(C)C)c2)cc(C(C)(C)C)c1O
Out: 0.00203

====

# condition_parameters: in methanol, 333.15 K
measured_metric: solubility (mole fraction)
Number, no unit, nothing else.

In: So what's the measured solubility (mole fraction) for this one? CC(C)(C)c1cc(CCC(=O)OCC(COC(=O)CCc2cc(C(C)(C)C)c(O)c(C(C)(C)C)c2)(COC(=O)CCc2cc(C(C)(C)C)c(O)c(C(C)(C)C)c2)COC(=O)CCc2cc(C(C)(C)C)c(O)c(C(C)(C)C)c2)cc(C(C)(C)C)c1O
Out: 0.00726
